# Read-out: glucuronosyltransferase (UGT1A1), UGT1A1 (gene 54658)
# assay: CLD_UGT1A1_48hr: CellzDirect (CLD) Gene Expression Assay for glucuronosyltransferase (UGT1A1) at 48 hours (AID 2283709);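 also: actives increase expression relative to DMSO so potency refers to induction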
Results filed as inconclusive are left out. Activity calls are given as the source filed them. The calls were made as follows: active = hit-call score of the fitted dose curve at least 0.9, where 1 is the maximum; inconclusive = response in the unintended direction; inactive = score below 0.9.
A correct response names exactly one class from active, inactive

Example entries and their recorded answers appear below.
{"molecule": "COP(=S)(OC)Oc1ccc([N+](=O)[O-])cc1", "answer.label": "active"}
{"molecule": "CCC(C)Nc1c([N+](=O)[O-])cc(C(C)(C)C)cc1[N+](=O)[O-] (stereo unspecified)", "answer.label": "active"}

Exercise: What was the test verdict on COP(=O)(OC)OC=C(Cl)Cl ?
Solution: inactive

Exercise: What was the test verdict on CCc1ccc(C(=O)NN(C(=O)c2cc(C)cc(C)c2)C(C)(C)C)cc1 ?
Solution: active

Exercise: What was the test verdict on CCS(=O)(=O)c1cccnc1S(=O)(=O)NC(=O)Nc1nc(OC)cc(OC)n1 ?
Solution: inactive

Exercise: What was the test verdict on CCC(C)(C)C(=O)OC1=C(c2ccc(Cl)cc2Cl)C(=O)OC12CCCCC2 ?
Solution: inactive
